# experimental-target: HIV integrase (Human immunodeficiency virus type 1 group M subtype B, UniProt P12497, F1332H)
# Construct: HIV integrase full length gene (J. Virol., 67, 425-437 (1993)) in which phenylalanine at codon 185 was substituted by histidine
# protocol-details: Determination of enzyme (HIV integrase) inhibitory activity
# experimental-setup: recombinant integrase protein (F185H), donor DNA/target DNA, absorbance at 450 nm
pIC50: −log10 of the molar value. Where a name gives a salt, the structure may show the parent alone.
Reported pIC50 values for the following molecules.
measured-metric: pIC50

>>> meas_value("CC(C)[C@@H](CO)n1cc(C(=O)O)c(=O)c2cc(Cc3cccc(Cl)c3F)c(OCCN3CCCCC3)cc21")
8.20
>>> meas_value("COc1cc2c(cc1C(O)c1cccc(Cl)c1F)c(=O)c(C(=O)O)cn2[C@H](CO)C(C)C (single isomer, unassigned) [Example 7-7]")
7.77
>>> meas_value("O=C(O)c1cn2c3c(cc(Cc4cccc(Cl)c4F)cc3c1=O)OCC2CO (centres unmarked)")
7.33
>>> meas_value("CC(C)[C@@H](CO)n1cc(C(=O)O)c(=O)c2cc(Cc3cccc(Cl)c3F)c(OCc3ccc(C(N)=O)cc3)cc21")
8.33
>>> meas_value("COc1cc2c(cc1Cc1cccc(Cl)c1F)c(=O)c(C(=O)O)cn2[C@H](CO)[C@@H](C)OC")
8.30
>>> meas_value("COc1cc2c(cc1Cc1cccc(Cl)c1F)c(=O)c(C(=O)O)cn2[C@H](CO)CCSC")
8.24
>>> meas_value("CC(C)[C@@H](CO)n1cc(C(=O)O)c(=O)c2cc(Cc3cccc(Cl)c3F)c(N3CCN[C@@H](C)C3)cc21")
8.21
>>> meas_value("CC(C)[C@@H](CO)n1cc(C(=O)O)c(=O)c2cc(Cc3cccc(Cl)c3F)c(OCC(=O)O)cc21")
8.28
>>> meas_value("COc1cc2c(cc1Cc1cccc(Cl)c1F)c(=O)c(C(=O)O)cn2C(CO)C1CCNCC1 (centres unmarked) [Example 2-2, hydrochloride]")
7.92
>>> meas_value("CC(C)[C@@H](CO)n1cc(C(=O)O)c(=O)c2cc(Cc3cccc(Cl)c3F)c(OC3CCN(S(C)(=O)=O)CC3)cc21")
8.18
>>> meas_value("CC(C)[C@@H](CO)n1cc(C(=O)O)c(=O)c2cc(Cc3cccc(Cl)c3F)c(OC3CCNCC3)cc21")
8.39
>>> meas_value("CC(C)[C@@H](CO)n1cc(C(=O)O)c(=O)c2cc(Cc3cccc(Cl)c3F)c(OCC(F)(F)F)cc21")
8.26
>>> meas_value("CCc1cc2c(cc1Cc1cccc(Cl)c1F)c(=O)c(C(=O)O)cn2[C@H](CO)C(C)C")
8.33
>>> meas_value("CC(C)[C@@H](CO)n1cc(C(=O)O)c(=O)c2cc(Cc3cccc(Cl)c3F)c(N3CCNCC3)cc21")
8.14
